Entries annotated with measured MIC
# Tested on: Staphylococcus epidermidis EPI1
# Assay Details: In vitro antibacterial activity, standard agar-dilution assay
# Type: cell-based
# Stated Conditions: Staphylococcus epidermidis EPI1; agar dilution; read-out: MIC
Numbers only; they are read as µg/mL.

In the examples that follow, each entry is paired with its recorded MIC.
C=C[C@@]1(C)CC[C@H](C(=C)C)[C@@H](c2c[nH]c3ccccc23)[C@H]1N=C=S 8
C=C[C@@]1(C)[C@H](Cl)C[C@H]2[C@H](c3c[nH]c4cccc(c34)C2(C)C)[C@H]1N=C=S 2
[C-]#[N+][C@@H]1[C@@H]2c3c[nH]c4cccc(c34)C(C)(C)[C@H]2C[C@@H](Cl)[C@]1(C)C=C 8
C=C[C@@]1(C)[C@H](Cl)C[C@H](C(=C)C)[C@@H](c2c[nH]c3ccccc23)[C@H]1N=C=S 4
[C-]#[N+][C@@H]1[C@H]2c3c[nH]c4cccc(c34)C(C)(C)[C@@H]2CC[C@]1(C)C=C 32
[C-]#[N+][C@@H]1[C@H]2c3c[nH]c4cccc(c34)C(C)(C)[C@H]2C[C@@H](Cl)[C@]1(C)C=C 2

Returns the measured MIC for the input compound. Input: [C-]#[N+][C@@H]1[C@H](c2c[nH]c3ccccc23)[C@@H](C(=C)C)CC[C@]1(C)C=C
8
